B1: Steroid hormone receptor ERR2, residues 100 to 176; numbered along this chain, O95718 (parent)
chain: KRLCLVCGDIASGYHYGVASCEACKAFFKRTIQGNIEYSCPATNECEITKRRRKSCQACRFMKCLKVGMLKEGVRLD

variants of: B1; assay: abundance fitness (aPCA) (normalised: wild type 0, dead -1); higher = more abundant; growth selection in yeast, the domain comes from the species named; conditions: Homo sapiens
Think of -0.4 as a floor: if abundance fitness stands on it or above, it is Satisfied; beneath it, Not satisfied.

[
  {
    "sequence entry": "KRLCLVCGDIASGYHYGVASCEACKAFFKRTIQGNIEYHCPATNECEITKRRRKSCQACRFMKCLKVGMLKEGVRLD [S39H]",
    "category": "Satisfied"
  },
  {
    "sequence entry": "KRLCLVCGDIASGYHYGVASCEACKNFFKRTIQGNIEYSCPATNECEITKRRRKSCQACRFMKCLKVGMLKEGVRLD [A26N]",
    "category": "Not satisfied"
  },
  {
    "sequence entry": "KRLCLVCGDIASGYHYGVASCEACKAFFKRTLQGNIEYSCPATNECEITKRRRKSCQACRFMKCLKVGMLKEGVRLD [I32L]",
    "category": "Satisfied"
  },
  {
    "sequence entry": "KRLCLVCGDIASGYHYGVASCEACKEFFKRTIQGNIEYSCPATNECEITKRRRKSCQACRFMKCLKVGMLKEGVRLD [A26E]",
    "category": "Satisfied"
  },
  {
    "sequence entry": "KRLCLVCGDIASGYHYGVASCEACKAFFKRTIQGNIEYSCPATNECEITKRRRKSCQGCRFMKCLKVGMLKEGVRLD [A58G]",
    "category": "Satisfied"
  },
  {
    "sequence entry": "KRLCLVCGDIASGYHYGVASVEACKAFFKRTIQGNIEYSCPATNECEITKRRRKSCQACRFMKCLKVGMLKEGVRLD [C21V]",
    "category": "Not satisfied"
  },
  {
    "sequence entry": "KRLCLVCGDIASGYHYGVASCEACKAFFKRTIQGNIEYSCPRTNECEITKRRRKSCQACRFMKCLKVGMLKEGVRLD [A42R]",
    "category": "Satisfied"
  },
  {
    "sequence entry": "KRLCLVCGDIASGYHYGVASCEACKAFFKRTIQGNIEYSCPATNECEITKRRRKSYQACRFMKCLKVGMLKEGVRLD [C56Y]",
    "category": "Not satisfied"
  },
  {
    "sequence entry": "KRLCLVCGDIASGYHYGVYSCEACKAFFKRTIQGNIEYSCPATNECEITKRRRKSCQACRFMKCLKVGMLKEGVRLD [A19Y]",
    "category": "Satisfied"
  },
  {
    "sequence entry": "KRLCLVCGDIASGYHYGVASCEACKAFFKRTIQMNIEYSCPATNECEITKRRRKSCQACRFMKCLKVGMLKEGVRLD [G34M]",
    "category": "Satisfied"
  },
  {
    "sequence entry": "KRLCLVCGDVASGYHYGVASCEACKAFFKRTIQGNIEYSCPATNECEITKRRRKSCQACRFMKCLKVGMLKEGVRLD [I10V]",
    "category": "Satisfied"
  },
  {
    "sequence entry": "KRLCLVCGDIASGYHYGVASDEACKAFFKRTIQGNIEYSCPATNECEITKRRRKSCQACRFMKCLKVGMLKEGVRLD [C21D]",
    "category": "Not satisfied"
  },
  {
    "sequence entry": "KRLCLVCGDIASGYHYGVASCEACKAFFKRTIQGNIEYSCPATNECEITKRRRKSCQACRGMKCLKVGMLKEGVRLD [F61G]",
    "category": "Not satisfied"
  },
  {
    "sequence entry": "KRLCLVCGDIASGYHYGVASCEACKAFFKRTIQGNIEYSCPANNECEITKRRRKSCQACRFMKCLKVGMLKEGVRLD [T43N]",
    "category": "Satisfied"
  },
  {
    "sequence entry": "KRLCLVCGDIASGYHYGVASCEACKAFFKRTAQGNIEYSCPATNECEITKRRRKSCQACRFMKCLKVGMLKEGVRLD [I32A]",
    "category": "Satisfied"
  },
  {
    "sequence entry": "KRLCLVCGDIASGYHYGVASCEACKAFFKRTIQGNIEYSCPATNEWEITKRRRKSCQACRFMKCLKVGMLKEGVRLD [C46W]",
    "category": "Not satisfied"
  },
  {
    "sequence entry": "KRLCLVCGDIASGYHYGVASCEACKAFFKRTIQGNYEYSCPATNECEITKRRRKSCQACRFMKCLKVGMLKEGVRLD [I36Y]",
    "category": "Satisfied"
  },
  {
    "sequence entry": "KRLCLVCGDIASGYHYGVASCEACKAFFKRTIQGNIEYSCPATNECEITKRRRKSCQAPRFMKCLKVGMLKEGVRLD [C59P]",
    "category": "Not satisfied"
  },
  {
    "sequence entry": "KRLCLVCGDIASGNHYGVASCEACKAFFKRTIQGNIEYSCPATNECEITKRRRKSCQACRFMKCLKVGMLKEGVRLD [Y14N]",
    "category": "Satisfied"
  },
  {
    "sequence entry": "KRLCLVCGDHASGYHYGVASCEACKAFFKRTIQGNIEYSCPATNECEITKRRRKSCQACRFMKCLKVGMLKEGVRLD [I10H]",
    "category": "Satisfied"
  },
  {
    "sequence entry": "KRLCLVCGDIASGYHYGVASCEACKAFFKRTIQGNIEYSCPATNECEITKRRRQSCQACRFMKCLKVGMLKEGVRLD [K54Q]",
    "category": "Satisfied"
  },
  {
    "sequence entry": "KRLCLVCGDIASGYHYSVASCEACKAFFKRTIQGNIEYSCPATNECEITKRRRKSCQACRFMKCLKVGMLKEGVRLD [G17S]",
    "category": "Satisfied"
  },
  {
    "sequence entry": "KRLCLVCGDIASGYHYGVASCEACKAFFKRTIQGNIEWSCPATNECEITKRRRKSCQACRFMKCLKVGMLKEGVRLD [Y38W]",
    "category": "Satisfied"
  },
  {
    "sequence entry": "KRLCLVCGDIASGYHYGVASCEACKAFFKRTIQGNIERSCPATNECEITKRRRKSCQACRFMKCLKVGMLKEGVRLD [Y38R]",
    "category": "Satisfied"
  },
  {
    "sequence entry": "KRLCLVCGDIASGYHYGVASCEACKAFFKRTIQGNIEYSCPATNECEITKRRRKSCQAARFMKCLKVGMLKEGVRLD [C59A]",
    "category": "Not satisfied"
  },
  {
    "sequence entry": "KRLCLVCGDIASGYHYGVASCEACKAFFKRTIQGNIEYSCPATNECEITKRRRKSRQACRFMKCLKVGMLKEGVRLD [C56R]",
    "category": "Not satisfied"
  },
  {
    "sequence entry": "KRLCLVCGDIASGYHYGVASCEACKAFFKRTIQGNIEYSCPKTNECEITKRRRKSCQACRFMKCLKVGMLKEGVRLD [A42K]",
    "category": "Satisfied"
  },
  {
    "sequence entry": "KRLCLVCGDIASGYHYGVASCEACKAFFKRTIQGNIEYSCPHTNECEITKRRRKSCQACRFMKCLKVGMLKEGVRLD [A42H]",
    "category": "Not satisfied"
  },
  {
    "sequence entry": "KRLCLVCGDIASGYHYGVASCEACKAFFKRTIQGNIEYSCPATNEYEITKRRRKSCQACRFMKCLKVGMLKEGVRLD [C46Y]",
    "category": "Not satisfied"
  },
  {
    "sequence entry": "KRLCLVCGDMASGYHYGVASCEACKAFFKRTIQGNIEYSCPATNECEITKRRRKSCQACRFMKCLKVGMLKEGVRLD [I10M]",
    "category": "Satisfied"
  },
  {
    "sequence entry": "KRLCLVCGDIASGYHYGVASCEACKAFFKRTIQGNIEYSCPATNECEITKRRRKSCQACRFMKLLKVGMLKEGVRLD [C64L]",
    "category": "Not satisfied"
  },
  {
    "sequence entry": "KRLKLVCGDIASGYHYGVASCEACKAFFKRTIQGNIEYSCPATNECEITKRRRKSCQACRFMKCLKVGMLKEGVRLD [C4K]",
    "category": "Not satisfied"
  },
  {
    "sequence entry": "KRLCLVCGDIASGYHYGVASCEACKAFFKRTIQGNIEYSCPATNECEIDKRRRKSCQACRFMKCLKVGMLKEGVRLD [T49D]",
    "category": "Satisfied"
  },
  {
    "sequence entry": "KRLCLVCGHIASGYHYGVASCEACKAFFKRTIQGNIEYSCPATNECEITKRRRKSCQACRFMKCLKVGMLKEGVRLD [D9H]",
    "category": "Satisfied"
  },
  {
    "sequence entry": "KRLCQVCGDIASGYHYGVASCEACKAFFKRTIQGNIEYSCPATNECEITKRRRKSCQACRFMKCLKVGMLKEGVRLD [L5Q]",
    "category": "Satisfied"
  },
  {
    "sequence entry": "VRLCLVCGDIASGYHYGVASCEACKAFFKRTIQGNIEYSCPATNECEITKRRRKSCQACRFMKCLKVGMLKEGVRLD [K1V]",
    "category": "Satisfied"
  },
  {
    "sequence entry": "KRLCLVCGDIASGYHYGVISCEACKAFFKRTIQGNIEYSCPATNECEITKRRRKSCQACRFMKCLKVGMLKEGVRLD [A19I]",
    "category": "Not satisfied"
  },
  {
    "sequence entry": "KRLCLVCGDIASGYHYGVASCEACKAFFKRTIQGNIEYSCPATNECEITKRRRKSCQKCRFMKCLKVGMLKEGVRLD [A58K]",
    "category": "Satisfied"
  },
  {
    "sequence entry": "KRLTLVCGDIASGYHYGVASCEACKAFFKRTIQGNIEYSCPATNECEITKRRRKSCQACRFMKCLKVGMLKEGVRLD [C4T]",
    "category": "Not satisfied"
  },
  {
    "sequence entry": "KRLCLVCGDIASDYHYGVASCEACKAFFKRTIQGNIEYSCPATNECEITKRRRKSCQACRFMKCLKVGMLKEGVRLD [G13D]",
    "category": "Satisfied"
  }
]

Origin of the recorded values: the Human Domainome abundance scans (Beltran et al. 2025)
